# System: SK-MEL-5 melanoma
# Test summary: NCI-60 one-dose screen, 48 h
# Run parameters: 10 µM unless noted
About 83,000 compounds went through this panel and 20% of them were active in at least one assay; those are over-represented in the sample as a whole. The source made the active and inactive calls. Rule for the calls: active = growth percent below 10; inactive = the rest.
Outcome codes: active, inactive

molecule=CCOC(=O)c1ccc(Nc2sc(C(=O)c3ccc(Br)cc3)c(N)c2C#N)cc1 class=inactive
molecule=C/C(O)=C(/C=N\C(=S)Nc1ccc(S(=O)(=O)Nc2nccs2)cc1)C(=O)Nc1ccccc1C class=inactive
molecule="CSCCC(NC(=O)C(Cl)Cl)C(=O)O (stereo not given)" class=inactive
molecule="NCC(O)C(O)C(O)C(O)CO (stereo not given)" class=inactive
molecule=CCCCc1ccc2nc(NC(=O)OC)[nH]c2c1 class=active
molecule=CCCCCCCCNC(=O)C(C)C class=inactive
molecule=NS(=O)(=O)c1cc(=O)[nH]c(=O)[nH]1 class=inactive
molecule=COc1cc(-c2ccc(NC(=O)CC(C)=O)c(OC)c2)ccc1NC(=O)CC(C)=O class=inactive
molecule="CCCCCCCCCCCCCC/C=C\\C(CC(=O)O)C(=O)O (stereo not given)" class=inactive
molecule=CC(=O)O[C@H]1CC[C@]2(C)C3=C(C(=O)C[C@H]2C1(C)C)[C@]1(C)CC[C@H]([C@H](C)CCC(=O)O)[C@@]1(C)CC3=O class=inactive

----------
# System: SW-620 colon
# Test summary: NCI-60 one-dose screen, 48 h (100 = growth as untreated, 0 = no growth, -100 = all killed)
# Run parameters: 10 µM unless noted
The panel holds about 83,000 compounds, 20% with a hit somewhere; the sample as a whole holds those more often.
Recorded metric: growth (%)

compound=NNc1ncccn1 quantitative_readout=94.7
compound=CN1C(=O)NC(c2ccc(Cl)cc2)(c2ccc(Cl)cc2)C1=O quantitative_readout=103
compound=O=C(O)c1c[nH]c2ccccc2c1=O quantitative_readout=108
compound=CCOc1ccc(NC(=S)N2CCC(CCCC3CCN(C(=S)Nc4ccc(OCC)cc4)CC3)CC2)cc1 quantitative_readout=98.3
compound=Oc1ccc2ccccc2c1CN1CCOCC1 quantitative_readout=113
compound=S=CN1CCCCC1 quantitative_readout=105
compound=Nc1ncnc(Nc2ccc(C(F)(F)F)cc2)n1 quantitative_readout=109
compound=CCCCN(C(=O)CC)c1ccccc1 quantitative_readout=98.7
compound=CCN(CC)CCOC(=O)Nc1c(C(C)C)cccc1C(C)C quantitative_readout=118
compound=O=C1C=C[C@H](O)[C@@]2(CO)O[C@@H]12 quantitative_readout=13.9
compound="CCCCCCCCCCCCCC/C=C\\C(CC(=O)O)C(=O)O (stereo not given)" quantitative_readout=103
compound=O=Cc1ccc(F)cc1 quantitative_readout=92.8
compound=Cc1[nH]c(=S)[nH]c(=O)c1C quantitative_readout=109
compound=N#C/C(=C\c1ccc(C#N)cc1)C(=O)c1ccccc1 quantitative_readout=109
compound="COC1OC(CO)C(OC)C(O)C1O (stereo not given)" quantitative_readout=93.6

----------
# System: UO-31 renal
# Test summary: NCI-60 one-dose screen, 48 h (100 = growth as untreated, 0 = no growth, -100 = all killed)
# Run parameters: 10 µM unless noted
# Procedure: Growth inhibition of the UO-31 human tumor cell line is measured as a screen for anti-cancer activity. Cells are grown in 96 well plates and exposed to the test compound for 48 hours. Compounds are tested at a single concentration, which is 10^-5 M for most compounds. The reported endpoint is percent growth (GI% or GIPRCNT), where numbers from 0 - 100% represent growth inhibition, and numbers from -100% - 0 represent cell death. For example, a value of 40 represents 60% growth inhibition. […]
This is part of a sample that, as a whole, favours compounds with a hit. Of some 83,000 tested, about 20% had one in any assay. The source made the active and inactive calls. How the source made its calls: active means growth percent below 10; inactive means the rest.
Recorded growth by entry
Recorded metric: growth

compound="CCC12OC(COc3ccccc3)CN1CCN2c1ccccc1 (configuration not stated)" result="75.2% [100 µM] (inactive)"
compound=CC1(C)CCC(C)(C)NC(=S)N1 result="88.2% (inactive)"
compound="CC(C)(C)NCCC(O)c1cc(C(F)(F)F)nc2c(C(F)(F)F)cccc12 (configuration not stated)" result="45.7% (inactive)"
compound=NNC(=O)CCCCl result="90.5% (inactive)"
compound=C=C(OC(C)=O)c1ccccc1 result="101% (inactive)"
compound=O=[n+]1ccn([O-])c2ccccc21 result="88.6% (inactive)"
compound=N#Cc1ccc2nc[nH]c2c1 result="91.4% (inactive)"
compound=Cc1ccc(N2C(=O)c3cccc4c(N)c(S(=O)(=O)O)cc(c34)C2=O)cc1 result="77.3% (inactive)"
compound=COc1ccc(Br)c(C=O)c1 result="54.1% (inactive)"
compound=N#C/C(=C\NC(=S)N=Nc1c(O)[nH]c2ccccc12)c1nc2ccccc2s1 result="79.2% (inactive)"
compound=O=C(N/N=C\c1ccc(Cl)cc1Cl)c1ccncc1 result="90.7% (inactive)"
compound="OC(CBr)CCBr (configuration not stated)" result="103% (inactive)"
compound=CC(=O)Nc1ccc(/C=C2\SC(=S)N(/C=C(\C(C)=O)C(N)=O)C2=O)cc1 result="68.4% (inactive)"
compound=Cn1c2ccccc2c2nnc(NCCCCO)nc21 result="68.4% (inactive)"
compound=Cc1ccc(NC(=S)N2CCOCC2)cc1C result="66.3% (inactive)"
compound=Cc1ccc(NC(=O)c2ccccc2Cl)cc1 result="97% (inactive)"
compound=CC(CO)(CO)C(=O)O result="98.6% (inactive)"
